# Test system: HT29 colon
# experiment_summary: NCI tumour cell line growth inhibition, 48 h; in the data active = GI50 below about 0.43 µM; inactive = the rest
Classes to choose from: Y = active, N = inactive

Please review the entries below; each comes with its answer.
compound: N#CSCc1ccc(Cl)c(CSC#N)c1
tgt: HT29 colon
group: Y
--
compound: Nc1ncnc2c1c(-c1ccc(Oc3ccccc3)cc1)nn2C[C@@H]1SSC[C@H]1O
tgt: HT29 colon
group: N
--
compound: O=C(Nc1ccc(Oc2cccc(F)c2)c(Cl)c1)c1cnccn1
tgt: HT29 colon
group: Y
--
compound: N#Cc1nc2c(S(=O)(=O)c3ccc(Cl)cc3)c(N)n(CCCN3CCOCC3)c2nc1C#N
tgt: HT29 colon
group: N
--
compound: C[C@]12CC[C@@H]3c4ccc(O)cc4CC[C@H]3[C@@H]1Cc1cnc(N)nc12
tgt: HT29 colon
group: N
--
compound: COc1cccc(-c2cc3c4c(nc5ccccc53)C(=O)c3cccnc3-c4n2)c1
tgt: HT29 colon
group: N
--
compound: NS(=O)(=O)c1ccc(/C=C/c2ccc(O)cc2)cc1
tgt: HT29 colon
group: N
--
compound: CCN1C(=O)N(CC)C2C1NN=c1s/c(=C\c3ccccn3)c(=O)n12 (stereo not given)
tgt: HT29 colon
group: N
--
compound: COc1cc(/C=C/C(=O)c2ccc(F)cc2)ccc1OCCCN1CCN(CC(=O)Nc2ccc(Cl)cc2C(=O)c2ccccc2Cl)CC1
tgt: HT29 colon
group: N

Kindly review the next compound as well.
**Query** Would you mind telling me which call this test gave COc1ccc(CC(=O)c2ccc(O)cc2O)cc1 ?
**Result** N
